- Tested on: human hepatocytes
- procedure_details: Hepatocyte stability, human
- Type: in vitro ADME
- measurement_context: 2 μM, 0.5 million cells/ml
Label y for high-side CLint (L/hr/kg) (at or above 1 L/h/kg) and n for low-side CLint (L/hr/kg) (below it).

Some solved cases for reference:
CNS(=O)(=O)Nc1cccc(Cc2c(CN3CCNCC3)c3cc(F)c(OC(=O)N(C)C)cc3oc2=O)c1F; n
CNS(=O)(=O)Nc1cccc(Cc2c(CN(C)C)c3ccc(OC(=O)N(C)C)cc3oc2=O)c1F; y
CCCS(=O)(=O)Nc1cccc(Cc2c(CN3CCNCC3)c3cc(Cl)c(OC(=O)N(C)C)cc3oc2=O)c1F; y
CNS(=O)(=O)Nc1nccc(Cc2c(CN(C)C)c3ccc(OC(=O)N(C)C)cc3oc2=O)c1F; n
CNS(=O)(=O)Nc1cccc(Cc2c(CN(C)C)c3cc(F)c(OC(=O)N(C)C)cc3oc2=O)c1F; n

Now look at this entry.
Determine whether this molecule has CLint (L/hr/kg) no lower than 1 L/h/kg: `CCS(=O)(=O)Nc1cccc(Cc2c(CN(C)C)c3ccc(OC(=O)N(C)C)cc3oc2=O)c1F`
y

----------
- Test system: balb/c mouse hepatocytes
- procedure_details: Hepatocyte stability, balb/c mouse
- Assay type: in vitro ADME
- measurement_context: 2 μM, 0.5 million cells/ml
Label T for high-side CLint (L/hr/kg) (at or above 7 L/h/kg) and F for low-side CLint (L/hr/kg) (below it).

CNS(=O)(=O)Nc1cccc(Cc2c(CN3CCNCC3)c3cc(F)c(OC(=O)N(C)C)cc3oc2=O)c1F; F
CCCS(=O)(=O)Nc1cccc(Cc2c(CN3CCNCC3)c3cc(Cl)c(OC(=O)N(C)C)cc3oc2=O)c1F; T
CCS(=O)(=O)Nc1cccc(Cc2c(CN(C)C)c3ccc(OC(=O)N(C)C)cc3oc2=O)c1F; F
CNS(=O)(=O)Nc1cccc(Cc2c(CN(C)C)c3cc(F)c(OC(=O)N(C)C)cc3oc2=O)c1F; F

Now look at this entry.
Determine whether this compound has CLint (L/hr/kg) no lower than 7 L/h/kg: `CNS(=O)(=O)Nc1cccc(Cc2c(CN(C)C)c3ccc(OC(=O)N(C)C)cc3oc2=O)c1F`
F

----------
- procedure_details: eLogD (lipophilicity; pH 7.4) by HPLC
- Type: physicochemical
- Protocol: Test compounds were dissolved in DMSO at a concentration of 10 mM and further diluted with methanol:water 1:1. Samples were analyzed using gradient HPLC with three different isocratic mobile phases of 0.25% octanol in methanol (60, 65 and 70%) and 20 mM MOPS buffer (pH 7.4) with decylamine. If needed, (for low E log Doct compounds) the isocratic mobile phases were adjusted to e.g. 40, 45 and 50% methanol. Peaks were detected using a diode array at absorbance 220-320 nm. […]
# Lookup of reported chromatographic logD keyed by entry

Cn1cnc2c(F)c(Nc3ccc(Br)cc3Cl)c(C(=O)NOCCO)cc21 [Reference-1, Selumetinib]; 3.6

Proceeding to the next compound to report its chromatographic logD.
Could you please provide reported chromatographic logD for CNS(=O)(=O)Nc1nccc(Cc2c(C)c3ccc(Oc4ncccn4)cc3oc2=O)c1F [Reference-2, reference compound] ? Thanks!
3.6

----------
- System: Caco-2 cells
- procedure_details: Caco-2 bidirectional permeability (absorption & efflux)
- measurement_context: Example 47
endpoint_label: Mean Efflux Ratio
// no unit, no text: just the number

As a guide, the following entries are already answered.
CNS(=O)(=O)Nc1cccc(Cc2c(CN3CCNCC3)c3cc(F)c(OC(=O)N(C)C)cc3oc2=O)c1F; 2.01
CCCS(=O)(=O)Nc1cccc(Cc2c(CN3CCNCC3)c3cc(Cl)c(OC(=O)N(C)C)cc3oc2=O)c1F; 23.2
CCS(=O)(=O)Nc1cccc(Cc2c(CN(C)C)c3ccc(OC(=O)N(C)C)cc3oc2=O)c1F; 0.567
CNS(=O)(=O)Nc1cccc(Cc2c(CN(C)C)c3cc(F)c(OC(=O)N(C)C)cc3oc2=O)c1F; 3.82
CNS(=O)(=O)Nc1nccc(Cc2c(CN(C)C)c3ccc(OC(=O)N(C)C)cc3oc2=O)c1F; 5.12

Proceeding to the next compound to report its Mean Efflux Ratio.
Could you please provide reported Mean Efflux Ratio for `CNS(=O)(=O)Nc1cccc(Cc2c(CN(C)C)c3ccc(OC(=O)N(C)C)cc3oc2=O)c1F` ? Thanks!
1.32

----------
- System: cynomolgus monkey hepatocytes
- procedure_details: Hepatocyte stability, cynomolgus monkey
- Assay type: in vitro ADME
- measurement_context: 2 μM, 0.5 million cells/ml
- Procedure: In this study, human, cynomolgus monkey, beagle dog, wistar hannover rat, and balb/c mouse hepatocyle stability was determined.
endpoint_label: CLint (L/hr/kg) (L/h/kg)
Please respond with the number in L/h/kg and leave the unit unwritten.

As a guide, the following entries are already answered.
CNS(=O)(=O)Nc1nccc(Cc2c(CN(C)C)c3ccc(OC(=O)N(C)C)cc3oc2=O)c1F; 2.87
CNS(=O)(=O)Nc1cccc(Cc2c(CN3CCNCC3)c3cc(F)c(OC(=O)N(C)C)cc3oc2=O)c1F; 0.980

Could you please provide reported CLint (L/hr/kg) for `CNS(=O)(=O)Nc1cccc(Cc2c(CN(C)C)c3cc(F)c(OC(=O)N(C)C)cc3oc2=O)c1F` ? Thanks!
0.886

Could you please provide reported CLint (L/hr/kg) for `CCS(=O)(=O)Nc1cccc(Cc2c(CN(C)C)c3ccc(OC(=O)N(C)C)cc3oc2=O)c1F` ? Thanks!
4.67

Could you please provide reported CLint (L/hr/kg) for `CCCS(=O)(=O)Nc1cccc(Cc2c(CN3CCNCC3)c3cc(Cl)c(OC(=O)N(C)C)cc3oc2=O)c1F` ? Thanks!
5.02

Could you please provide reported CLint (L/hr/kg) for `CNS(=O)(=O)Nc1cccc(Cc2c(CN(C)C)c3ccc(OC(=O)N(C)C)cc3oc2=O)c1F` ? Thanks!
3.30

----------
- target: CYP2C19 (Homo sapiens, UniProt P33261)
- Sequence (P33261 whole entry): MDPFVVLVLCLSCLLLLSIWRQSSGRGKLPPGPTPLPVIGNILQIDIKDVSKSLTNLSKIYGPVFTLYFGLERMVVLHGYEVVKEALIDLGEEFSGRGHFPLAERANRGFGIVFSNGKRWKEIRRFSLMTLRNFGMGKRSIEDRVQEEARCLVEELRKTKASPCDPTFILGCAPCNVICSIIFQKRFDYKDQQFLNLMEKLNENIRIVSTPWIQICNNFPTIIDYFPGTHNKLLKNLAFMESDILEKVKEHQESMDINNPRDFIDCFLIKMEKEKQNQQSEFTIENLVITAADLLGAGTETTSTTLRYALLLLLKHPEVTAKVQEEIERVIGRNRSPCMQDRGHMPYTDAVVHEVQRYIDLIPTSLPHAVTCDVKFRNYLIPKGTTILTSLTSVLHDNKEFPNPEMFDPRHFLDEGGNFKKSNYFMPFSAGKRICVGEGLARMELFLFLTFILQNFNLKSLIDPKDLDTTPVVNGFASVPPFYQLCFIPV
- procedure_details: in vitro
- measurement_context: microsomes, pH 7.4
Counter-ions that a name gives are not always drawn.
Label Met for high-side inhibition at 30 min, 10 µM (at or above 40%) and Not met for low-side inhibition at 30 min, 10 µM (below it).

Some solved cases for reference:
CNS(=O)(=O)Nc1cccc(Cc2c(CN3CCNCC3)c3ccc(OC(=O)N(C)C)cc3oc2=O)c1Cl [Compound 246, hydrochloride]; Not met
CCS(=O)(=O)Nc1cccc(Cc2c(CN3CCNCC3)c3cc(Cl)c(OC(=O)N(C)C)cc3oc2=O)c1Cl [Compound 257, hydrochloride]; Met
CCN(C)Cc1c(Cc2cccc(NS(=O)(=O)NC)c2Cl)c(=O)oc2cc(OC(=O)N(C)C)ccc12 [Compound 245]; Not met

Determine whether this compound has inhibition at 30 min, 10 µM no lower than 40%: CNS(=O)(=O)Nc1cccc(Cc2c(CN(C)C)c3ccc(OC(=O)N(C)C)cc3oc2=O)c1Cl [Compound 274]
Not met

----------
- System: phospho-ERK in A549 (KRAS G12S) cells
- procedure_details: Cell-based pERK (pERK:tERK) in A549 cells
- measurement_context: 10 nM, 2 h; phospho- to total protein ratio normalized to DMSO control (Table 9)
endpoint_label: A549-pERK (10 nM, 2 h)

CNS(=O)(=O)Nc1cccc(Cc2c(CN(C)C3CCC3)c3ccc(OC(=O)N(C)C)cc3oc2=O)c1F; 96.4
CNS(=O)(=O)Nc1cccc(Cc2c(CNc3cn[nH]c3)c3ccc(OC(=O)N(C)C)cc3oc2=O)c1F; 93.8
CNS(=O)(=O)Nc1cccc(Cc2c(CNC(=O)c3nn[nH]n3)c3ccc(OC(=O)N(C)C)cc3oc2=O)c1F; 100
CCC(=O)NCc1c(Cc2cccc(NS(=O)(=O)NC)c2F)c(=O)oc2cc(OC(=O)N(C)C)ccc12; 97.4
CNS(=O)(=O)Nc1cccc(Cc2c(CN3CC(C(N)=O)C3)c3ccc(OC(=O)N(C)C)cc3oc2=O)c1F; 97.7
CNS(=O)(=O)Nc1cccc(Cc2c(CN3CC4(CCC4)C3)c3ccc(OC(=O)N(C)C)cc3oc2=O)c1F; 50.2

Proceeding to the next compound to report its A549-pERK (10 nM, 2 h).
Could you please provide reported A549-pERK (10 nM, 2 h) for `CNS(=O)(=O)Nc1cccc(Cc2c(CC(=O)Nc3ccon3)c3ccc(OC(=O)N(C)C)cc3oc2=O)c1F` ? Thanks!
119

----------
# Lookup of reported inhibition at 30 min, 10 µM keyed by entry
- target: UniProtKB P20813
- Sequence (P20813 whole entry): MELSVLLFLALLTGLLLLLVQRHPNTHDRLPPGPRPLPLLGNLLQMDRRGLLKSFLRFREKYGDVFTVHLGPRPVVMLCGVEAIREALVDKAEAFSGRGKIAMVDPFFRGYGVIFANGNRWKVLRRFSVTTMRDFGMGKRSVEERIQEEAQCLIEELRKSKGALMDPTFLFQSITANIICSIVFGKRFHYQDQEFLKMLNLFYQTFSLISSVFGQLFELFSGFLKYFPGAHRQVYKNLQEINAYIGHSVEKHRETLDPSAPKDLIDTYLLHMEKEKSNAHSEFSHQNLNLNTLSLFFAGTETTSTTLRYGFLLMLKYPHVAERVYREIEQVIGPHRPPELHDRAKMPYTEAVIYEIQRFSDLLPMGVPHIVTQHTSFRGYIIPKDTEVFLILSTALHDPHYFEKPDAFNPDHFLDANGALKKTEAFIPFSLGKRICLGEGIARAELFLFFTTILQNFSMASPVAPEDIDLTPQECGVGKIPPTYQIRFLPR
- procedure_details: in vitro
- measurement_context: microsomes, pH 7.4
Structures can show the parent of a compound that is named as a salt.
Please respond with the number in % and leave the unit unwritten.

As a guide, the following entries are already answered.
CNS(=O)(=O)Nc1cccc(Cc2c(CN3CCNCC3)c3cc(Cl)c(OC(=O)N(C)C)cc3oc2=O)c1Cl [Compound 256, hydrochloride]; 1.9
CNS(=O)(=O)Nc1cccc(Cc2c(CN3CCNCC3)c3ccc(OC(=O)N(C)C)cc3oc2=O)c1Cl [Compound 246, hydrochloride]; 29.7

Could you please provide reported inhibition at 30 min, 10 µM for CCS(=O)(=O)Nc1cccc(Cc2c(CN3CCNCC3)c3cc(Cl)c(OC(=O)N(C)C)cc3oc2=O)c1Cl [Compound 257, hydrochloride] ? Thanks!
13.7

Could you please provide reported inhibition at 30 min, 10 µM for `CNS(=O)(=O)Nc1cccc(Cc2c(CN(C)C)c3ccc(OC(=O)N(C)C)cc3oc2=O)c1Cl` ? Thanks!
-0.6

Could you please provide reported inhibition at 30 min, 10 µM for `CCN(C)Cc1c(Cc2cccc(NS(=O)(=O)NC)c2Cl)c(=O)oc2cc(OC(=O)N(C)C)ccc12` ? Thanks!
6
